B1: glmS ribozyme (parent)
chain: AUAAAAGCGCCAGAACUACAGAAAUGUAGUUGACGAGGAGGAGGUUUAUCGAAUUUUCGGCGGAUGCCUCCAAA

variants of: B1; test: kcat; higher = faster cleavage; RNA array; conditions: with glucosamine-6-phosphate
Variants at the floor of the assay were thinned out.
measured quantity: kcat (s⁻¹)
Answers are plain numbers, in s⁻¹.

Item C50A C61G C68G has what recorded kcat? 3.41e-05

Item A6U A36C G38A A52U has what recorded kcat? 1.37e-05

Item U57G U69C has what recorded kcat? 1.77e-05

Item G38U C68G has what recorded kcat? 0.000246

Item U30A A53C has what recorded kcat? 0.00232

Batch request: kcat per item, same order as input.
1. A6G U56G U69G
2. A39C G43U C68U
3. G13C U31A
4. U56G U65G
5. G7U A52G C70G
6. A33U A53G
7. G29U C50U

["1.41e-05", "9.32e-05", 0.000405, 0.00371, "3.01e-05", "3.38e-05", "1.34e-05"]

Batch request: kcat per item, same order as input.
1. U57A C61G
2. C10A U30C A53G C67A

1: 1.36e-05; 2: 1.94e-05
